Assay: Stability in human cryopreserved hepatocytes without and with cimetidine or furafylline (Example 5)
Format: in vitro ADME
Conditions: human, cryopreserved hepatocytes, with cimetidine 300 μM, substrate 1 μM, cimetidine 300 μM; read-out: t1/2

{"smilesRepr": "COC(=O)Nc1nc2ccc(C(=O)c3ccccc3)cc2[nH]1", "half-life at 1 μM / h": 2.32}
{"smilesRepr": "CCOc1ccc(NC(C)=O)cc1", "half-life at 1 μM / h": 0.313}

====

Assay: Stability in human cryopreserved hepatocytes without and with cimetidine or thiabendazole (Example 6)
Conditions: human, cryopreserved hepatocytes (suspension), with cimetidine 30 µM, CLint, substrate 1 μM, cimetidine 30 μM

{"smilesRepr": "CCOc1ccc2ccc(=O)oc2c1", "hepatocyte CLint at 1 µM (µL/min/1e6 cells)": 99.9}
